B1: TRIB1 (parent)
chain: EIGTSDQIVPEYQEDSDISSFFC

variants of: B1; assay: protein stability index of a GFP-peptide fusion (GPS, HEK-293T) (PSI 1-6); higher = more stable; conditions: c terminus: native;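 note: lentivirally expressed fusions sorted by FACS into six bins by GFP to DsRed ratio, PSI derived from sequencing read proportions per bin multiplied by bin number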
Decision: protein stability index >= 3 yields Met, all other cases yield Not met.

Request: Decide: is the reported value of protein stability index for T4I equal to or greater than 3?
Response: Not met

Request: Same question, E11K this time
Response: Met

Request: Then what about the variant S16Y ?
Response: Not met

Request: Queued: T4W
Response: Not met

Request: Same lookup for E1L , please.
Response: Not met

Request: Do the same for F21Y please
Response: Not met

Request: What about P10V ?
Response: Met

Request: Now this one: S16R
Response: Met

Request: Next: E1M
Response: Not met

Request: Q13H ?
Response: Not met

Request: Another variant to look at: T4R
Response: Not met

Request: Record: Q13F
Response: Not met

Request: Lookup E11D
Response: Not met

Request: Check P10I too.
Response: Met

Request: Quick one: P10T
Response: Met

Request: Next up: D17A
Response: Met

Request: Quick one: E14G
Response: Not met
